- Test Target: UniProt P00533
Observed Property: IC50

> print(dat)
                                        smi     test.target  observed.value
1  COc1cnc(Nc2ccc(N3CCN(C)CC3)cc2)nc1Nc1ccc2[nH]ccc2c1  UniProt P00533          > 1 µM
2  CN1CCN(c2ccc(Nc3ncc(Br)c(Nc4ccc5ncccc5c4)n3)cc2)CC1  UniProt P00533         > 10 µM
3  CN1CCN(c2ccc(Nc3ncc(F)c(Nc4ccc5[nH]ccc5c4)n3)cc2)CC1  UniProt P00533          > 1 µM
4  CN1CCN(c2ccc(Nc3ncc(Br)c(Nc4ccc5[nH]ccc5c4)n3)cc2)CC1  UniProt P00533          > 1 µM

====

- Test Target: Epidermal growth factor receptor (Homo sapiens, UniProt P00533, T790M)
- Sequence (P00533 25-1210 T790M limits assumed): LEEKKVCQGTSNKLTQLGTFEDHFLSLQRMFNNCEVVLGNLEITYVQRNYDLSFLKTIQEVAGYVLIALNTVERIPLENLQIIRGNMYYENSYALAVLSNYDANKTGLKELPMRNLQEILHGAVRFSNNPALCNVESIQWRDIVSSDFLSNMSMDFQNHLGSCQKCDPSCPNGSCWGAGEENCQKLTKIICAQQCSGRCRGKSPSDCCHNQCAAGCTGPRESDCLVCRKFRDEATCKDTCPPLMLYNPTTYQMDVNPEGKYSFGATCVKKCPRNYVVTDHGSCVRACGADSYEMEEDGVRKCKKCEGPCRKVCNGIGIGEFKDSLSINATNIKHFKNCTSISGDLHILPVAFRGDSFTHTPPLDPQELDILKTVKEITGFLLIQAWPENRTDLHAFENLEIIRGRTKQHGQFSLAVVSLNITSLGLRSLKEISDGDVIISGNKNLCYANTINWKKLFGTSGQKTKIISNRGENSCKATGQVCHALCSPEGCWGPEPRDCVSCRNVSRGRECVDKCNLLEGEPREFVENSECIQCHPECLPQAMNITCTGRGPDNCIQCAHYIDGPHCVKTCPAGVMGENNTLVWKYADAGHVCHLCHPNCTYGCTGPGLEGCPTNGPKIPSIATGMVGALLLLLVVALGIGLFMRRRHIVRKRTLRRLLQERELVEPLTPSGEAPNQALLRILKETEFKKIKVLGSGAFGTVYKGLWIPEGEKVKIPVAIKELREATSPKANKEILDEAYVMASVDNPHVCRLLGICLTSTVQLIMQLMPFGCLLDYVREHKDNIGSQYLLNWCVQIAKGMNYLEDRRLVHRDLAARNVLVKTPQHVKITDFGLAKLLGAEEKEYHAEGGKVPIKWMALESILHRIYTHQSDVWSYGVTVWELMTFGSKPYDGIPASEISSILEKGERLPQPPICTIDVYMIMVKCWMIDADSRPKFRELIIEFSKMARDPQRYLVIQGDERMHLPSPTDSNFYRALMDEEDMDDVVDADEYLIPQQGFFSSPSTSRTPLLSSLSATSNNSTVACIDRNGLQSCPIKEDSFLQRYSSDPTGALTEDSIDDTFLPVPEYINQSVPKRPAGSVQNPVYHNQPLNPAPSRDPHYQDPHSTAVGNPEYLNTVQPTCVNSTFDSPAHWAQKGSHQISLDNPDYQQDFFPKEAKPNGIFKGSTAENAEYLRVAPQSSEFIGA
- Assay: Inhibition of EGFR T790M mutant (unknown origin) expressed in baculovirus expression system by ELISA
Observed Property: IC50 (nM)

> print(dat)
                                        smi  observed.property  units.label  observed.value
1  CN1CCN(c2ccc(Nc3ncc(Cl)c(Nc4ccc5[nH]ccc5c4)n3)cc2)CC1               IC50           nM             105
2  CN1CCN(c2ccc(Nc3nccc(Nc4ccc5[nH]ccc5c4)n3)cc2)CC1               IC50           nM             100
3  CN1CCN(c2ccc(Nc3ncc(C(F)(F)F)c(Nc4ccc5[nH]ccc5c4)n3)cc2)CC1               IC50           nM             102
